Source listed as ChEMBL document CHEMBL4689842.

Tested on: Fibroblast
PROTOCOL DESCRIPTION: Multiplex assay against human fibroblast
Type: toxicity, cell-based
SETTINGS: 24 h, 1 µM, compound concentration 1 uM, replicate 2
PROPERTY: Population Pyknosed Nuclei (%)
Quick note: give the figure in %, leave out the unit.

IN: Population Pyknosed Nuclei (%) for "Cc1csc2c(N[C@@H](C)CN3CCN(S(=O)(=O)c4ccc(Cl)c(Cl)c4)CC3)ncnc12" ?
OUT: 14

IN: Population Pyknosed Nuclei (%) for CN1CCC[C@@H]1CCO[C@](C)(c1ccccc1)c1ccc(Cl)cc1.O=C(O)/C=C/C(=O)O [CLEMASTINE FUMARATE] ?
OUT: 15

IN: Population Pyknosed Nuclei (%) for "CC(C)(O)CNc1ncc(-c2ccnc(Nc3ccnc(Cl)c3)n2)c(CC2CC2)n1" ?
OUT: 15

IN: Population Pyknosed Nuclei (%) for CN1CCN(c2ccc(OC(F)(F)F)c(Nc3ncc4c(n3)-c3c(c(C(N)=O)nn3CCO)CC4)c2)CC1 [ONVANSERTIB] ?
OUT: 13

IN: Population Pyknosed Nuclei (%) for Cc1nc(Nc2n[nH]c3c2CN(C(=O)N[C@H](CN(C)C)c2ccccc2)C3(C)C)c2sccc2n1 [PF-03758309] ?
OUT: 6

IN: Population Pyknosed Nuclei (%) for "OC1(c2ccc(Cl)cc2)CCN(Cc2c[nH]c3ccccc23)CC1" ?
OUT: 6

IN: Population Pyknosed Nuclei (%) for "CN(C)C(=O)/C(C#N)=C/c1ccc(-c2nc3cnc4[nH]ccc4c3n2C2CCCCC2)o1" ?
OUT: 9

IN: Population Pyknosed Nuclei (%) for Cc1c(-c2ccc(O)cc2)n(Cc2ccc(OCCN3CCCCCC3)cc2)c2ccc(O)cc12 [BAZEDOXIFENE] ?
OUT: 15

IN: Population Pyknosed Nuclei (%) for CC[C@H](C)C(=O)O[C@H]1C[C@@H](C)C=C2C=C[C@H](C)[C@H](CC[C@@H]3C[C@@H](O)CC(=O)O3)[C@H]21 [LOVASTATIN] ?
OUT: 7

IN: Population Pyknosed Nuclei (%) for CC(C)NCC(O)COc1ccc(CCOCC2CC2)cc1.Cl (stereo unspecified) [BETAXOLOL HYDROCHLORIDE] ?
OUT: 10

IN: Population Pyknosed Nuclei (%) for Cl.N#Cc1ccc2[nH]cc(CCCCN3CCN(c4ccc5oc(C(N)=O)cc5c4)CC3)c2c1 [VILAZODONE HYDROCHLORIDE] ?
OUT: 6

IN: Population Pyknosed Nuclei (%) for "Cc1[nH]c(/C=C2\C(=O)Nc3ccc(S(=O)(=O)N(C)c4cccc(Cl)c4)cc32)c(C)c1C(=O)N1CCN(C)CC1" ?
OUT: 9

IN: Population Pyknosed Nuclei (%) for CN(C)CC#Cc1ccc(OCCCc2sc(N3CCc4cccc(C(=O)Nc5nc6ccccc6s5)c4C3)nc2C(=O)O)c(F)c1 [A-1155463] ?
OUT: 9

IN: Population Pyknosed Nuclei (%) for COc1cccc([C@@H](C)NCCCc2ccccc2Cl)c1.Cl [TECALCET HYDROCHLORIDE] ?
OUT: 10

IN: Population Pyknosed Nuclei (%) for CN(C)C(=O)N[C@H]1CC[C@H](CCN2CCN(c3cccc(Cl)c3Cl)CC2)CC1.Cl [CARIPRAZINE HYDROCHLORIDE] ?
OUT: 9

IN: Population Pyknosed Nuclei (%) for NC(=O)Nc1cc(-c2cccc(F)c2)sc1C(=O)N[C@H]1CCCNC1 [AZD-7762] ?
OUT: 0
